kinase still bound, per cent of control values, listed per item
- TARGET OF ASSAY: ZAP70 (human) (UniProt P43403)
- Sequence (P43403 whole entry, looked up): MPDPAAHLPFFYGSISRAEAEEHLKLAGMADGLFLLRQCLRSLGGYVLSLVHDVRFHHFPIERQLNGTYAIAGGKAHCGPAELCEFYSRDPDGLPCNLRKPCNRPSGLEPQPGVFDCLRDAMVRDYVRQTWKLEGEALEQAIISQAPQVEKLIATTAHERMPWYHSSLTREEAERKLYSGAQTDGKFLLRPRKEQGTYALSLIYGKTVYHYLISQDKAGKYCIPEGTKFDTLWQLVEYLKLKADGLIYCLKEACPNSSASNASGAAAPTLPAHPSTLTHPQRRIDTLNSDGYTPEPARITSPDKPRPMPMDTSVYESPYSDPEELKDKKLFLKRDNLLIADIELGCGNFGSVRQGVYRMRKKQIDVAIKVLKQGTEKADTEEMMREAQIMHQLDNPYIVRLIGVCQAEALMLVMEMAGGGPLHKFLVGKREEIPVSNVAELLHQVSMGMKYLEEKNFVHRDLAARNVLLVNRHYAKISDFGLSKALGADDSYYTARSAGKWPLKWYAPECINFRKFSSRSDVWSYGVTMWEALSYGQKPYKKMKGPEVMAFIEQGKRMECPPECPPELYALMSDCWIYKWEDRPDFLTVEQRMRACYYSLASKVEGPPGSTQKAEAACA
- PROTOCOL DETAILS: KINOMEscan competition binding
- CONDITION SET: compound 10.0 µM
Kindly provide the numeric value in % only, without the unit symbol.

Sample answers from the record:
1. Nc1ccc(-c2ccc3ncc4ccc(=O)n(-c5cccc(C(F)(F)F)c5)c4c3c2)cn1 | 100
2. Cc1ccc(C(=O)Nc2cccc(C(F)(F)F)c2)cc1Nc1cncc(C(N)=O)c1 | 100
3. O=C(NOC[C@H](O)CO)c1ccc(F)c(F)c1Nc1ccc(I)cc1F | 89

# lookup: `C[C@@H](Oc1cc(-n2cnc3ccc(CN4CCN(C)CC4)cc32)sc1C(N)=O)c1ccccc1C(F)(F)F` on ZAP70 (human) (UniProt P43403), kinase still bound, per cent of control = 69

Record `OCCCNc1cc(-c2ccnc(Nc3cccc(Cl)c3)n2)ccn1` / ZAP70 (human) (UniProt P43403), kinase still bound, per cent of control recorded as 100

Entry `CCOc1cc2ncc(C#N)c(Nc3ccc(OCc4ccccn4)c(Cl)c3)c2cc1NC(=O)/C=C/CN(C)C` ; assay system ZAP70 (human) (UniProt P43403); kinase still bound, per cent of control recorded at 87

---

- TARGET OF ASSAY: CSNK1G3 (human) (UniProt Q9Y6M4)
- Sequence (Q9Y6M4 whole entry, looked up): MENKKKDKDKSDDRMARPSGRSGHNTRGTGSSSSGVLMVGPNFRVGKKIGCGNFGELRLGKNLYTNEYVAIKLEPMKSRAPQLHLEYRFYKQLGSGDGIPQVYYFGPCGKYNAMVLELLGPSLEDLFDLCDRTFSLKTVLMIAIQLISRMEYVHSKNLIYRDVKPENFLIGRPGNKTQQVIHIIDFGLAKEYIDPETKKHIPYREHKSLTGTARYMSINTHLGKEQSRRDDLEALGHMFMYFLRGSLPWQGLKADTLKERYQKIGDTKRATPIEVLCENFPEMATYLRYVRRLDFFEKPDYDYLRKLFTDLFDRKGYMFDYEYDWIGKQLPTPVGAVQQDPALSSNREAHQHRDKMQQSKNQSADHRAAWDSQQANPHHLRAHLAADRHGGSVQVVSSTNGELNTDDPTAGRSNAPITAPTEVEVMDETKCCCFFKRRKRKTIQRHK
- PROTOCOL DETAILS: KINOMEscan competition binding
- CONDITION SET: compound 10.0 µM
ASSAY METRIC: kinase still bound, per cent of control (%)
API: value field is a number in %; no unit string.

Consider the following illustrative entries.
1. COc1cc(C(=O)NC2CCN(C)CC2)ccc1Nc1ncc2c(n1)N(C1CCCC1)C(C)CC(=O)N2C (stereo not drawn) | 100
2. CCN1CCN(Cc2ccc(Nc3ncc4c(n3)N(C)c3ccccc3C(=O)N4C)cc2C(F)(F)F)CC1 | 5.4

# context switch: different compound, same kinase still bound, per cent of control
Summary for this compound, `CCCS(=O)(=O)Nc1ccc(F)c(C(=O)c2c[nH]c3ncc(-c4ccc(Cl)cc4)cc23)c1F` : kinase still bound, per cent of control is 100

---

- Test system: EGFR (human), P00533 [746-750 del]
- Sequence (P00533 whole entry, looked up, stated change not applied): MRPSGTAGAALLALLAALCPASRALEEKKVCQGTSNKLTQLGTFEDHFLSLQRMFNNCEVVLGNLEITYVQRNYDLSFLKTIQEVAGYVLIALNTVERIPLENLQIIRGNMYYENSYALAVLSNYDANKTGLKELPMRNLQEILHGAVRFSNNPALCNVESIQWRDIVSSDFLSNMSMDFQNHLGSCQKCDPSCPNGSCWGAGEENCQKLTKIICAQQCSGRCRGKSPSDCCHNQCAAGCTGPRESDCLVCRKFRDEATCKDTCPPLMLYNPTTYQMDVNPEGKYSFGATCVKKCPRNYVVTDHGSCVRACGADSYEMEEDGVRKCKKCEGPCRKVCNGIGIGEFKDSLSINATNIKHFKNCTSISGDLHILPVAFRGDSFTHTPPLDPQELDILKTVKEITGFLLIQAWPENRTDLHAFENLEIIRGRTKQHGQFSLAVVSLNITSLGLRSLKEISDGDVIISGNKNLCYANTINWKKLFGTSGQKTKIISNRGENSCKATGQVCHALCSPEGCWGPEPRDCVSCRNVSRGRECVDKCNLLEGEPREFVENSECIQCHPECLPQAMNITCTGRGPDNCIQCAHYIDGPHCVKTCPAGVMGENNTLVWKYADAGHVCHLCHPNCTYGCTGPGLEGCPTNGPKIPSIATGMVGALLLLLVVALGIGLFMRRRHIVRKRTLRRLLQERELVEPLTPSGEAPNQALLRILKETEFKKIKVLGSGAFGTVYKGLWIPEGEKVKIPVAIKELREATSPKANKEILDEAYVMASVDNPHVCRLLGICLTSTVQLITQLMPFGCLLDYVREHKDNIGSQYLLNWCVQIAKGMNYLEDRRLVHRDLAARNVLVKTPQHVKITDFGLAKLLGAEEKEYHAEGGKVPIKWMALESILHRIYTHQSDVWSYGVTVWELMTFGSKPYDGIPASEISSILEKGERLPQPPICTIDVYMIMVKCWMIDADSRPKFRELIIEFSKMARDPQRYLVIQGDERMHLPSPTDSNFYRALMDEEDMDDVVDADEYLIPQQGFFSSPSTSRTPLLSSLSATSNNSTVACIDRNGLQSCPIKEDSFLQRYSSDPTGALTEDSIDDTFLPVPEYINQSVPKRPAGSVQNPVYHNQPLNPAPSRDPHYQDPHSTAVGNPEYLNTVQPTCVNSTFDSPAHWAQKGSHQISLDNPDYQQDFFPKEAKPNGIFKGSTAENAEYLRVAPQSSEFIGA
- PROTOCOL DETAILS: KINOMEscan competition binding
- CONDITION SET: compound 10.0 µM
ASSAY METRIC: kinase still bound, per cent of control (%)
Quick reminder: number only, in %, skip the unit.

Some molecules with recorded kinase still bound, per cent of control:
1. COc1cc(C(=O)N2CCC(N3CCN(C)CC3)CC2)ccc1Nc1ncc2c(n1)N(C)c1ccccc1C(=O)N2C | 72
2. COc1cc(C(=O)NC2CCN(C)CC2)ccc1Nc1ncc2c(n1)N(C1CCCC1)CCC(=O)N2C(C)C | 100

Noted for `COc1cc2c(Nc3ccc(NC(=O)c4ccccc4)cc3)ncnc2cc1OCCCN1CCOCC1` : its kinase still bound, per cent of control reads 36

The reported value for `C=CC(=O)Nc1cccc(Oc2nc(Nc3ccc(N4CCN(C)CC4)cc3OC)ncc2Cl)c1` in terms of kinase still bound, per cent of control is 0.2

The measured kinase still bound, per cent of control associated with `C=CC(=O)Nc1ccc(C(=O)c2sc(Nc3ccc(N4CCN(C)CC4)cc3OC)nc2N)cc1` reads 77

---

The compounds listed here are annotated with their kinase still bound, per cent of control.
- Test system: FLT3 (human), P36888 [N841I]
- PROTOCOL DETAILS: KINOMEscan competition binding
- CONDITION SET: compound 10.0 µM

Worked examples, 5 compounds total:
1) CCc1nc(-c2cccc(C)c2)c(-c2ccnc(NC(=O)c3ccccc3)c2)s1 | 28%
2) C[C@@H](Oc1cc(-n2cnc3ccc(CN4CCN(C)CC4)cc32)sc1C(N)=O)c1ccccc1C(F)(F)F | 1.2%
3) Cc1ccc(C(=O)Nc2cccc(C(F)(F)F)c2)cc1Nc1cncc(C(N)=O)c1 | 100%
4) O=C(NOC[C@H](O)CO)c1ccc(F)c(F)c1Nc1ccc(I)cc1F | 78%
5) CCC(=O)N1CCN(c2ccc(-n3c(=O)ccc4cnc5ccc(-c6cnc7ccccc7c6)cc5c43)cc2C(F)(F)F)CC1 | 8.8%

The compound listed as `COc1cc2ncnc(-n3nc(-c4ccccn4)nc3N)c2cc1OC` shows kinase still bound, per cent of control equal to 0.4%

Entry under test: `N#C/C(=C1/Nc2ccccc2S1)c1ccnc(NCCc2cccnc2)n1` . Its kinase still bound, per cent of control was 48%

Per the record, `COc1ccc(N(C(=O)Oc2cc(C(=O)Nc3cccc(C(F)(F)F)c3)ccc2C)c2ccnc(Nc3ccc(N4CCN(C)CC4)cc3)n2)c(OC)c1` has kinase still bound, per cent of control of 29%

Recorded result, CC1=C(C(=O)Nc2cc3cn[nH]c3cc2F)C(c2ccc(C(F)(F)F)cc2)CC(=O)N1 (stereo unspecified) , kinase still bound, per cent of control: 75%

Per the record, `COc1cc(C(=O)N2CCC(N3CCN(C)CC3)CC2)ccc1Nc1ncc2c(n1)N(C)c1ccccc1C(=O)N2C` has kinase still bound, per cent of control of 73%

Form: compound = `C=CC(=O)Nc1cc(-n2c(=O)ccc3cnc4ccc(-c5cn[nH]c5)cc4c32)ccc1C` ; kinase still bound, per cent of control = 1.6%

---

- TARGET OF ASSAY: NTRK3 (human)
- PROTOCOL DETAILS: KINOMEscan competition binding
- CONDITION SET: compound 10.0 µM
ASSAY METRIC: kinase still bound, per cent of control

Check out these entries, answers already filled in.
1) CCCS(=O)(=O)Nc1ccc(F)c(C(=O)c2c[nH]c3ncc(-c4ccc(Cl)cc4)cc23)c1F | 65%
2) Nc1ccc(-c2ccc3ncc4ccc(=O)n(-c5cccc(C(F)(F)F)c5)c4c3c2)cn1 | 100%
3) O=C(NC1CC1)c1cccc(-c2ccc3c(NC(=O)C4CC4)n[nH]c3c2)c1 | 44%
4) Cc1ccc(NC(=O)c2cccc(C(C)(C)C#N)c2)cc1Nc1ccc2ncn(C)c(=O)c2c1 | 38%

kinase still bound, per cent of control for NTRK3 (human) with input `CCC(=O)N1CCN(c2ccc(-n3c(=O)ccc4cnc5ccc(-c6cnc7ccccc7c6)cc5c43)cc2C(F)(F)F)CC1` equals 100%

---

- TARGET OF ASSAY: RIOK2 (human)
- PROTOCOL DETAILS: KINOMEscan competition binding
- CONDITION SET: compound 10.0 µM
Returns: string. Value is rule met if measured kinase still bound, per cent of control is below 70%, and rule not met if it is greater than or equal to it.

1) C=CC(=O)Nc1cccc(Nc2nc(N[C@H]3CC[C@H](N(C)C)CC3)nc3c2ncn3C(C)C)c1 | rule met
2) COc1cc(C(=O)NC2CCN(C)CC2)ccc1Nc1ncc2c(n1)N(C1CCCC1)CCC(=O)N2C(C)C | rule not met

(Q) Strictly below 70% in kinase still bound, per cent of control? `C[C@@H](Oc1cc(-n2cnc3ccc(CN4CCN(C)CC4)cc32)sc1C(N)=O)c1ccccc1C(F)(F)F`
(A) rule met

(Q) Is the reported kinase still bound, per cent of control for `CC[C@@H]1C(=O)N(C)c2cnc(Nc3ccc(C(=O)NC4CCN(C)CC4)cc3OC)nc2N1C1CCCC1` strictly below 70%?
(A) rule not met

(Q) Determine whether this molecule shows kinase still bound, per cent of control lower than 70% (ties excluded): `CCC(=O)N1CCN(c2ccc(-n3c(=O)ccc4cnc5ccc(-c6cnc7ccccc7c6)cc5c43)cc2C(F)(F)F)CC1`
(A) rule met

---

- TARGET OF ASSAY: PTK2 (human)
- PROTOCOL DETAILS: KINOMEscan competition binding
- CONDITION SET: compound 10.0 µM
This section presents molecules with their documented kinase still bound, per cent of control values.
Quick note: give the figure in %, leave out the unit.

1) C[C@@H](Oc1cc(-n2cnc3ccc(CN4CCN(C)CC4)cc32)sc1C(N)=O)c1ccccc1C(F)(F)F | 99
2) Cc1ccc(NC(=O)c2cccc(C(C)(C)C#N)c2)cc1Nc1ccc2ncn(C)c(=O)c2c1 | 100
3) C=CC(=O)Nc1cccc(Nc2nc(N[C@H]3CC[C@H](N(C)C)CC3)nc3c2ncn3C(C)C)c1 | 26

Read the next record carefully.
kinase still bound, per cent of control for `Cc1ccc2nc(NCCN)c3ncc(C)n3c2c1` is 97

---

- TARGET OF ASSAY: STK4 (human) (UniProt Q13043)
- Sequence (Q13043 whole entry, looked up): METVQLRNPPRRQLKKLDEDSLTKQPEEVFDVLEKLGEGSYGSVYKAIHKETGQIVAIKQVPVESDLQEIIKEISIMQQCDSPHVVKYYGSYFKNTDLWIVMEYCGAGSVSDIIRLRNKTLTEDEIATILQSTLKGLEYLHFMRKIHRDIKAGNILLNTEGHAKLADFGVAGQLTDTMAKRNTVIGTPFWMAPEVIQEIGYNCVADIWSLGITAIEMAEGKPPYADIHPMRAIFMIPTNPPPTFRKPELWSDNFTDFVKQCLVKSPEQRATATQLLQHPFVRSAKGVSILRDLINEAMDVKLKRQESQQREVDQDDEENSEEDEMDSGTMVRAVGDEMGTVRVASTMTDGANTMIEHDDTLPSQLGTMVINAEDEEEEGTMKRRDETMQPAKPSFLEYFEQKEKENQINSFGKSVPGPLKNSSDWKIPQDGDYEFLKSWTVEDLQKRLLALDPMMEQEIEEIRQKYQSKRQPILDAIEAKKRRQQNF
- PROTOCOL DETAILS: KINOMEscan competition binding
- CONDITION SET: compound 10.0 µM
// assign 1 (yes) if kinase still bound, per cent of control falls strictly below 80%, else 0 (no) (ties count as 0 (no))

(Q) Determine if `Nc1ccc(-c2ccc3ncc4ccc(=O)n(-c5cccc(C(F)(F)F)c5)c4c3c2)cn1` shows kinase still bound, per cent of control strictly lower than 80%.
(A) 0 (no)

(Q) Report whether reported kinase still bound, per cent of control is lower than 80% (strictly) for `Cn1c(=O)n(-c2ccc(C(C)(C)C#N)cc2)c2c3cc(-c4cnc5ccccc5c4)ccc3ncc21`
(A) 0 (no)

(Q) Check if kinase still bound, per cent of control falls below 80% for `CN(C)C/C=C/C(=O)Nc1cccc(Nc2ncc3c(n2)N(C)c2ccccc2C(=O)N3C)c1` .
(A) 1 (yes)

(Q) Please determine if `COc1cc(N2CCN(C)CC2)ccc1Nc1nc(N)c(C(=O)c2c(Cl)cccc2Cl)s1` is below 80% in terms of kinase still bound, per cent of control.
(A) 0 (no)

(Q) Just wondering, is kinase still bound, per cent of control of `Cc1ccc(C(=O)Nc2cccc(C(F)(F)F)c2)cc1Nc1cncc(C(N)=O)c1` below 80%?
(A) 0 (no)

(Q) Answer whether the molecule `Cc1ccc(NC(=O)c2cccc(C(C)(C)C#N)c2)cc1Nc1ccc2ncn(C)c(=O)c2c1` has kinase still bound, per cent of control strictly less than 80%
(A) 0 (no)
